# assayed-system: T1, native IHFNTHI (integration host factor of nontypeable Haemophilus influenzae) (nontypeable Haemophilus influenzae …, UniProt P43723 1-96; P43724 1-94)
# T1 construct: also called NTHI IHF
# T1 sequence 1: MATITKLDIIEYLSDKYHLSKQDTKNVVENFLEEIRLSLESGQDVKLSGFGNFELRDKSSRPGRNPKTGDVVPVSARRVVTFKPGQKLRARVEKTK
# T1 sequence 2: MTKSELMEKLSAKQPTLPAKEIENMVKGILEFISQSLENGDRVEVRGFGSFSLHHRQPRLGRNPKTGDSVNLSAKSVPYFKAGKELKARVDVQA
# method-notes: SPR Biacore 3000, IHFNTHI immobilized, HuMab as analyte
Rule: measured kon below 5000 M⁻¹ s⁻¹ gets fulfilled; anything equal to or greater than 5000 M⁻¹ s⁻¹ gets not fulfilled.

Worked cases, answers included:
binder	discrete-label
humanized anti-tip monoclonal antibody, heavy chain SEQ ID NO: 3 and light chain SEQ ID NO: 9 (antibody, V domains shown, also called H10212 (1F8.F1 Humanized HC3) + L10212 (1F8.F1 Humanized LC3)) VH: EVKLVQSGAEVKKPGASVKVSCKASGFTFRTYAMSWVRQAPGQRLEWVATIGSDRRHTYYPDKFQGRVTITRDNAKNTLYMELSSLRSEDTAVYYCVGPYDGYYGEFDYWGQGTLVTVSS VL: DVVMTQSPDSLAVSLGERATINCKSSQSLLDSDGKTFLNWLQQKPGQPPKRLIYLVSKLDSGVPDRFSGSGSGTDFTLTISSLQAEDVAVYYCWQGTHFPYTFGQGTKLEIKR	fulfilled
humanized anti-tip monoclonal antibody, heavy chain SEQ ID NO: 3 and light chain SEQ ID NO: 8 (antibody, V domains shown, also called H10212 (1F8.F1 Humanized HC3) + L10211 (1F8.F1 Humanized LC2)) VH: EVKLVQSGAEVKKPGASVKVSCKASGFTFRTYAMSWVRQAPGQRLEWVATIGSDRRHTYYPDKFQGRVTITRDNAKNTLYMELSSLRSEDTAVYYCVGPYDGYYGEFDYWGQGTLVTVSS VL: DVVMTQSPLSLPVTLGQPASISCRSSQSLLDSDGKTFLNWLQQRPGQSPRRLIYLVSKRDSGVPDRFSGSGSGTDFTLKISRVEAEDVGVYYCWQGTHFPYTFGQGTKLEIKR	fulfilled
humanized anti-tip monoclonal antibody, heavy chain SEQ ID NO: 2 and light chain SEQ ID NO: 8 (antibody, V domains shown, also called H10211 (1F8.F1 Humanized HC2) + L10211 (1F8.F1 Humanized LC2)) VH: EVQLVESGGGLVQPGGSLRLSCAASGFTFRTYAMSWVRQAPGKGLEWVATIGSDRRHTYYPDSVKGRFTISRDNSKNTLYLQMNSLRAEDTAVYYCVGPYDGYYGEFDYWGQGTLVTVSS VL: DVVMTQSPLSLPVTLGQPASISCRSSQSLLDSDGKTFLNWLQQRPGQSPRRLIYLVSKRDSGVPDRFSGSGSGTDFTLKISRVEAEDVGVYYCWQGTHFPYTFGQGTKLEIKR	fulfilled
humanized anti-tip monoclonal antibody, heavy chain SEQ ID NO: 1 and light chain SEQ ID NO: 9 (antibody, V domains shown, also called H10210 (1F8.F1 Humanized HC1) + L10212 (1F8.F1 Humanized LC3)) VH: EVKLVESGGGLVQPGGSLRLSCAASGFTFRTYAMSWVRQAPGKGLEWVATIGSDRRHTYYPDSVKGRFTISRDNAKNTLYLQMNSLRAEDTAVYYCVGPYDGYYGEFDYWGQGTLVTVSS VL: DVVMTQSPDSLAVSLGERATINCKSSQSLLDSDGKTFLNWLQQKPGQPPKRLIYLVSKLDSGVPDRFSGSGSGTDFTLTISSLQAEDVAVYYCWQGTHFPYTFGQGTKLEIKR	not fulfilled

Here is another binder to look at.
Qu. kon under 5000 M⁻¹ s⁻¹? Item: humanized anti-tip monoclonal antibody, heavy chain SEQ ID NO: 1 and light chain SEQ ID NO: 8 (antibody, V domains shown, also called H10210 (1F8.F1 Humanized HC1) + L10211 (1F8.F1 Humanized LC2)) VH: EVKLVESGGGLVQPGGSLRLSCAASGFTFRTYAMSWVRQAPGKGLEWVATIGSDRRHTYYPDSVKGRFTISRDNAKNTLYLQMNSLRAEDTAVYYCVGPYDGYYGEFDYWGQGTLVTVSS VL: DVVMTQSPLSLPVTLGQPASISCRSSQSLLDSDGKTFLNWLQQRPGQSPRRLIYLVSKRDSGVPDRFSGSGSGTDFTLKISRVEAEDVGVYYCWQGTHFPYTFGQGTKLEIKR
Ans. not fulfilled
